The reported measurements were obtained from patent EP4810611A2.

target: TRBV9+TRAV26 antigen; test: BLI (OctetRed 96), antigen on AR2G sensors, antibody 126-2 nM, 1:1 model; run 2
Entries and their measured koff follow.
Reply with just the number (in s⁻¹).

* anti-TRBV9-1 monoclonal antibody (antibody, human IgG1, kappa, V domains shown) VH: QIQLVQSGPELREPGESVKLSCKASGYTFTDYLVHWVKQAPGKGLKWMGWINTYTGTPTYADDFEGRFVFSLEASASTANLQISNLKNEDTATYFCARSWRRGLRGLGFDYWGQGVFVTVSS VL: DVQMTQSPYNLAASPGESVSINCKASKSINKYLAWYQQKPGKPNKLLIYDGSTLQSGIPSRFSGSGSGTDFTLTIRGLEPEDFGLYYCQQHNEYPPTFGAGTKLELKR | 0.000183

Field: next binder
Q) State its koff: anti-TRBV9-3 monoclonal antibody (antibody, human IgG1, kappa, V domains shown) VH: QIQLVQSGPELREPGESVKLSCKASGYTFTDYLVHWVKQAPGKGLKWMGWINTYTGTPTYADDFEGRFVFSLEASASTANLQISNLKNEDTATYFCARSWRRGIRGLGFDYWGQGVFVTVSS VL: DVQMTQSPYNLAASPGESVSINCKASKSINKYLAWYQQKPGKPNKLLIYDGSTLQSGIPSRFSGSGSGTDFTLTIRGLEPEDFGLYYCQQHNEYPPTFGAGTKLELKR
A) 9.8e-05
